Molecular target: SpBzz1-D1
Assay: SPOT peptide array binding signal intensity (averaged, normalized) (arbitrary units (background-subtracted, floor 0; scale differs between SH3 domains)); higher = stronger binding of the SH3 domain to the peptide
ENDPOINT NAME: SPOT peptide array binding signal intensity

INSERT INTO results (binder, readout_number) VALUES
  ('PALPSLPPPPLLNVD', 94),
  ('RRRDFGAPANKRPRR', 225),
  ('FIRKRAPTPPAPSRS', 770),
  ('LPMNIQPDLPPRKIM', 362);
